The values you see were collected from ChEMBL document CHEMBL3865816.

test system: Pseudomonas aeruginosa; assay: Antibacterial activity against Pseudomonas aeruginosa NCIM 2036 at 10 ug/ml measured after 8 hrs by spectrophotometric method; format: functional; details: NCIM 2036, 8 h
Attribute: inhibition at 10 µg/mL
Express the result in % but write the number alone.

Example entries begin here.
INSERT INTO measurements (compound, quantitative_result) VALUES
  ('N#Cc1ccc(NC(=S)NC[C@H]2CN(c3ccc(N4CC5(COC5)C4)c(F)c3)C(=O)O2)cc1', 46.6),
  ('CC(C)NC(=S)NC[C@H]1CN(c2ccc(N3CC4(COC4)C3)c(F)c2)C(=O)O1', 83.8);

What reported inhibition at 10 µg/mL corresponds to `CC(=O)OCC(=O)NC[C@H]1CN(c2ccc(N3CC4(COC4)C3)c(F)c2)C(=O)O1` on Pseudomonas aeruginosa?
42.8

What reported inhibition at 10 µg/mL corresponds to `NC[C@H]1CN(c2ccc(N3CC4(COC4)C3)c(F)c2)C(=O)O1` on Pseudomonas aeruginosa?
53.7

What reported inhibition at 10 µg/mL corresponds to `CC1(C)[C@@]2(C)CC[C@]1(C(=O)NC[C@H]1CN(c3ccc(N4CC5(COC5)C4)c(F)c3)C(=O)O1)OC2=O` on Pseudomonas aeruginosa?
55

What reported inhibition at 10 µg/mL corresponds to `O=C1O[C@@H](CNS(=O)(=O)c2cc([N+](=O)[O-])ccc2Cl)CN1c1ccc(N2CC3(COC3)C2)c(F)c1` on Pseudomonas aeruginosa?
38.6

What reported inhibition at 10 µg/mL corresponds to O=C1OC2(CCN(Cc3ccccc3)C2)CN1c1ccc(N2CCOCC2)c(F)c1 (centres undefined) on Pseudomonas aeruginosa?
32.7

What reported inhibition at 10 µg/mL corresponds to CC(=O)NC[C@H]1CN(c2ccc(N3CCOCC3)c(F)c2)C(=O)O1 [LINEZOLID] on Pseudomonas aeruginosa?
99

---

Attribute: IC50
system: Escherichia coli; experiment: Antibacterial activity against Escherichia coli NCIM 2688 measured after 8 hrs by spectrophotometric method; type: functional; conditions: NCIM 2688, 8 h

Example entries begin here.
INSERT INTO measurements (smiles_repr, metric_name, result) VALUES
  ('CC1(C)[C@@]2(C)CC[C@]1(C(=O)NC[C@H]1CN(c3ccc(N4CC5(COC5)C4)c(F)c3)C(=O)O1)OC2=O', 'IC50', '> 100 µg/mL'),
  ('O=C1O[C@@H](CNC(=S)Nc2ccccc2F)CN1c1ccc(N2CC3(COC3)C2)c(F)c1', 'IC50', '> 100 µg/mL'),
  ('O=C1O[C@@H](CNC(=O)C23CC4CC(CC(C4)C2)C3)CN1c1ccc(N2CC3(COC3)C2)c(F)c1', 'IC50', '> 100 µg/mL');

Here is the next item to consider.
Need IC50, item `O=C1O[C@@H](CNS(=O)(=O)c2cccc(C(F)(F)F)c2)CN1c1ccc(N2CC3(COC3)C2)c(F)c1`
0.57 µg/mL

---

Attribute: inhibition at 10 µg/mL
tested on: Pseudomonas aeruginosa; assay: Antibacterial activity against Pseudomonas aeruginosa NCIM 2036 at 10 ug/ml measured after 8 hrs by spectrophotometric method; type: functional; conditions: NCIM 2036, 8 h
Answer with the figure and its unit, nothing else.

Example entries begin here.
INSERT INTO assay_data (compound, target_or_system, result) VALUES
  ('CC(=O)NC[C@H]1CN(c2ccc(N3CC4(COC4)C3)c(F)c2)C(=O)O1', 'Pseudomonas aeruginosa', '91.9%'),
  ('O=C(NC[C@H]1CN(c2ccc(N3CC4(COC4)C3)c(F)c2)C(=O)O1)Nc1ccc(Cl)cc1', 'Pseudomonas aeruginosa', '33.1%'),
  ('O=C1O[C@@H](CNC(=S)Nc2ccccc2F)CN1c1ccc(N2CC3(COC3)C2)c(F)c1', 'Pseudomonas aeruginosa', '87.4%'),
  ('O=C1O[C@@H](CNC(=S)Nc2cccc(C(F)(F)F)c2)CN1c1ccc(N2CC3(COC3)C2)c(F)c1', 'Pseudomonas aeruginosa', '67%'),
  ('O=C1O[C@@H](CNC(=S)Nc2ccc([N+](=O)[O-])cc2)CN1c1ccc(N2CC3(COC3)C2)c(F)c1', 'Pseudomonas aeruginosa', '41.8%'),
  ('O=C1O[C@@H](CNS(=O)(=O)c2ccc(Cl)s2)CN1c1ccc(N2CC3(COC3)C2)c(F)c1', 'Pseudomonas aeruginosa', '97.1%');

Need inhibition at 10 µg/mL, item `O=C1O[C@@H](CNS(=O)(=O)c2cccc(C(F)(F)F)c2)CN1c1ccc(N2CC3(COC3)C2)c(F)c1`
43%

Need inhibition at 10 µg/mL, item CC(=O)N1CCC2(C1)CN(c1ccc(N3CCOCC3)c(F)c1)C(=O)O2 (centres undefined)
48.4%

Need inhibition at 10 µg/mL, item `O=C(NC[C@H]1CN(c2ccc(N3CC4(COC4)C3)c(F)c2)C(=O)O1)c1ccno1`
94.9%

---

tested on: Mycobacterium tuberculosis; experiment: Antitubercular activity against dormant stage Mycobacterium tuberculosis H37Ra measured after 12 days by XTT assay; type: functional; details: 288 h
Attribute: MIC

Example entries begin here.
INSERT INTO assay_data (compound, target_or_system, result) VALUES
  ('COc1ccc(NC(=S)NC[C@H]2CN(c3ccc(N4CC5(COC5)C4)c(F)c3)C(=O)O2)cc1', 'Mycobacterium tuberculosis', '> 100 µg/mL'),
  ('O=C1OC2(CCN(Cc3ccccc3)C2)CN1c1ccc(N2CCOCC2)c(F)c1 (centres undefined)', 'Mycobacterium tuberculosis', '> 100 µg/mL'),
  ('O=C(NC[C@H]1CN(c2ccc(N3CC4(COC4)C3)c(F)c2)C(=O)O1)c1cccnc1', 'Mycobacterium tuberculosis', '> 100 µg/mL'),
  ('O=C1O[C@@H](CNC(=S)Nc2ccccc2F)CN1c1ccc(N2CC3(COC3)C2)c(F)c1', 'Mycobacterium tuberculosis', '41.6 µg/mL'),
  ('CC(=O)OCC(=O)NC[C@H]1CN(c2ccc(N3CC4(COC4)C3)c(F)c2)C(=O)O1', 'Mycobacterium tuberculosis', '10.6 µg/mL'),
  ('O=C1O[C@@H](CNS(=O)(=O)c2cccc(C(F)(F)F)c2)CN1c1ccc(N2CC3(COC3)C2)c(F)c1', 'Mycobacterium tuberculosis', '> 100 µg/mL'),
  ('N#Cc1ccc(NC(=S)NC[C@H]2CN(c3ccc(N4CC5(COC5)C4)c(F)c3)C(=O)O2)cc1', 'Mycobacterium tuberculosis', '> 100 µg/mL'),
  ('CC(C)(C)NC(=S)NC[C@H]1CN(c2ccc(N3CC4(COC4)C3)c(F)c2)C(=O)O1', 'Mycobacterium tuberculosis', '> 100 µg/mL');

Here is the next item to consider.
Need MIC, item `O=C(NC[C@H]1CN(c2ccc(N3CC4(COC4)C3)c(F)c2)C(=O)O1)Nc1ccc(Cl)cc1`
> 100 µg/mL

---

tested on: Mycobacterium tuberculosis; assay: Antitubercular activity against dormant stage Mycobacterium tuberculosis H37Ra measured after 12 days by XTT assay; type: functional; conditions: 288 h
Attribute: IC50
Express the result in µg/mL but write the number alone.

INSERT INTO assay_data (molecule, metric_name, quantitative_result) VALUES
  ('CC(=O)NC[C@H]1CN(c2ccc(N3CCOCC3)c(F)c2)C(=O)O1 [LINEZOLID]', 'IC50', 0.71),
  ('O=C(NC[C@H]1CN(c2ccc(N3CC4(COC4)C3)c(F)c2)C(=O)O1)c1ccno1', 'IC50', 9.58);

Need IC50, item `CC(=O)OCC(=O)NC[C@H]1CN(c2ccc(N3CC4(COC4)C3)c(F)c2)C(=O)O1`
6.69

Need IC50, item `NC[C@H]1CN(c2ccc(N3CC4(COC4)C3)c(F)c2)C(=O)O1`
3.46

---

Attribute: inhibition at 30 µg/mL
tested on: Escherichia coli; experiment: Antibacterial activity against Escherichia coli NCIM 2688 at 30 ug/ml measured after 8 hrs by spectrophotometric method; assay type: functional; settings: NCIM 2688, 8 h
Answer with the figure and its unit, nothing else.

Example entries begin here.
INSERT INTO results (compound, target_or_system, metric_name, result) VALUES
  ('O=C1O[C@@H](CNC(=S)Nc2ccc([N+](=O)[O-])cc2)CN1c1ccc(N2CC3(COC3)C2)c(F)c1', 'Escherichia coli', 'inhibition at 30 µg/mL', '65.5%'),
  ('O=C(NC[C@H]1CN(c2ccc(N3CC4(COC4)C3)c(F)c2)C(=O)O1)c1ccc(C(F)(F)F)cc1', 'Escherichia coli', 'inhibition at 30 µg/mL', '74.1%'),
  ('O=C1OC2(CCNC2)CN1c1ccc(N2CCOCC2)c(F)c1 (stereo not drawn)', 'Escherichia coli', 'inhibition at 30 µg/mL', '99.8%'),
  ('O=C1O[C@@H](CNS(=O)(=O)c2ccc(Cl)s2)CN1c1ccc(N2CC3(COC3)C2)c(F)c1', 'Escherichia coli', 'inhibition at 30 µg/mL', '97.8%'),
  ('CC(=O)NC[C@H]1CN(c2ccc(C3=C[C@H]4CC[C@@H](C3)N4C(=O)OC(C)(C)C)c(F)c2)C(=O)O1', 'Escherichia coli', 'inhibition at 30 µg/mL', '98.7%');

Need inhibition at 30 µg/mL, item OC1(CNc2ccc(N3CCOCC3)c(F)c2)CCN(Cc2ccccc2)C1 (stereo not drawn)
53.9%

Need inhibition at 30 µg/mL, item `O=C(NC[C@H]1CN(c2ccc(N3CC4(COC4)C3)c(F)c2)C(=O)O1)c1cccnc1`
94.8%

Need inhibition at 30 µg/mL, item `NC[C@H]1CN(c2ccc(N3CC4(COC4)C3)c(F)c2)C(=O)O1`
99.2%

Need inhibition at 30 µg/mL, item `CC(=O)NC[C@H]1CN(c2ccc(N3CC4(COC4)C3)c(F)c2)C(=O)O1`
28.8%

Need inhibition at 30 µg/mL, item `O=C(NC[C@H]1CN(c2ccc(N3CC4(COC4)C3)c(F)c2)C(=O)O1)c1ccno1`
99.9%

Need inhibition at 30 µg/mL, item `O=C1O[C@@H](CNC(=S)Nc2ccc(Cl)cc2)CN1c1ccc(N2CC3(COC3)C2)c(F)c1`
69.9%

Need inhibition at 30 µg/mL, item `CC(=O)OCC(=O)NC[C@H]1CN(c2ccc(N3CC4(COC4)C3)c(F)c2)C(=O)O1`
89.1%

Need inhibition at 30 µg/mL, item CC(=O)N1CCC2(C1)CN(c1ccc(N3CCOCC3)c(F)c1)C(=O)O2 (stereo not drawn)
46%

Need inhibition at 30 µg/mL, item `O=C1O[C@@H](CNC(=S)Nc2cccc(C(F)(F)F)c2)CN1c1ccc(N2CC3(COC3)C2)c(F)c1`
96.3%

Need inhibition at 30 µg/mL, item `CC(C)NC(=S)NC[C@H]1CN(c2ccc(N3CC4(COC4)C3)c(F)c2)C(=O)O1`
91.3%

Need inhibition at 30 µg/mL, item `COCC(=O)NC[C@H]1CN(c2ccc(N3CC4(COC4)C3)c(F)c2)C(=O)O1`
66.6%

Need inhibition at 30 µg/mL, item `COc1ccc(NC(=S)NC[C@H]2CN(c3ccc(N4CC5(COC5)C4)c(F)c3)C(=O)O2)cc1`
98%

Need inhibition at 30 µg/mL, item `CC(C)(C)NC(=S)NC[C@H]1CN(c2ccc(N3CC4(COC4)C3)c(F)c2)C(=O)O1`
100%

Need inhibition at 30 µg/mL, item `O=C1O[C@@H](CNC(=S)Nc2ccccc2F)CN1c1ccc(N2CC3(COC3)C2)c(F)c1`
51.9%

Need inhibition at 30 µg/mL, item `CC1(C)[C@@]2(C)CC[C@]1(C(=O)NC[C@H]1CN(c3ccc(N4CC5(COC5)C4)c(F)c3)C(=O)O1)OC2=O`
39.5%

Need inhibition at 30 µg/mL, item O=C1OC2(CCN(Cc3ccccc3)C2)CN1c1ccc(N2CCOCC2)c(F)c1 (stereo not drawn)
23.9%

Need inhibition at 30 µg/mL, item CC(=O)NC[C@H]1CN(c2ccc(N3CCOCC3)c(F)c2)C(=O)O1 [LINEZOLID]
100%
